From: patent US5534536A

tested on: leukotriene B4 (LTB4) production from human whole blood; experiment: Effect on leukotriene B4 (LTB4) production from human whole blood; assay type: cell-based; conditions: Ca ionophore A23187 stimulated, plasma LTB4 by EIA
Counter-ions that a name gives are not always drawn.

{"compound": "Cc1c(O)c(CC(C)C)c2c(c1CCn1ccnc1)OC1(CCCC1)C2", "target or test system": "leukotriene B4 (LTB4) production from human whole blood", "inhibition at 10 µM [%]": 70}
{"compound": "Cc1c(O)c(CCCSc2ccccc2)c2c(c1CCn1ccnc1)OC(C)(C)C2", "target or test system": "leukotriene B4 (LTB4) production from human whole blood", "inhibition at 10 µM [%]": 61}
{"compound": "COC(C)(C)Cc1c(O)c(C)c(CCn2ccnc2)c2c1CC(C)(C)O2", "target or test system": "leukotriene B4 (LTB4) production from human whole blood", "inhibition at 10 µM [%]": 22}
{"compound": "Cc1c(O)c(C(C)C)c2c(c1CCn1ccnc1)OC(C)(C)C2 [Example 2, hydrochloride]", "target or test system": "leukotriene B4 (LTB4) production from human whole blood", "inhibition at 10 µM [%]": 74}

----------
molecular target: human 5-lipoxygenase (Homo sapiens, UniProt P09917); construct: cytosol fraction of polymorphonuclear leukocytes prepared from human peripheral blood; endogenous in cells; assay: Effect on human 5-lipoxygenase activity (cytosol fraction of polymorphonuclear leukocytes); details: human PMN leukocyte cytosol fraction; 14C-arachidonic acid; 30° C., 1 min, pH 7.4
Sequence (P09917 whole entry): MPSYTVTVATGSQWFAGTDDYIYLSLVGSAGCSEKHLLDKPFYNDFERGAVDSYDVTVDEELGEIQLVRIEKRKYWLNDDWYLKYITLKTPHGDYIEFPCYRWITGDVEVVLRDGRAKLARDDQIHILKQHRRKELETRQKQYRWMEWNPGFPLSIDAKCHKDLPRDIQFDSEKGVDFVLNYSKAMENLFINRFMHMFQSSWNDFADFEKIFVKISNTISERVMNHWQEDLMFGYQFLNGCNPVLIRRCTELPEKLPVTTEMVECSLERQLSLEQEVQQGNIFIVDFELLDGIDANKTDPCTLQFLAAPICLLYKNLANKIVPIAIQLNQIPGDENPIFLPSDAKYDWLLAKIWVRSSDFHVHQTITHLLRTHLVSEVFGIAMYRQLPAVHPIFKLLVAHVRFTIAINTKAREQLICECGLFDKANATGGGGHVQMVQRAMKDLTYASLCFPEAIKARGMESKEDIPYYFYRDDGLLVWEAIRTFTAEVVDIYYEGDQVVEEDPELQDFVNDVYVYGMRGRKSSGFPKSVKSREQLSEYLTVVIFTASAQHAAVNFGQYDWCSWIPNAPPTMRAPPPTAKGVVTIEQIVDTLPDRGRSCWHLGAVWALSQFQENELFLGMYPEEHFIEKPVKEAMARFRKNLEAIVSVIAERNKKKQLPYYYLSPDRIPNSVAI
pIC50: −log10 of the molar value.
In this section we review reported pIC50 values for a set of compounds.
readout label: pIC50

{"compound": "Cc1c(O)c(C)c2c(c1CCCOc1cccnc1)OC(C)(C)CC2", "readout label": "pIC50", "measurement": 5.96}
{"compound": "CC1(C)CCc2c(Cn3ccnc3)c(O)c3ccccc3c2O1 [4(e)]", "readout label": "pIC50", "measurement": 6.16}
{"compound": "Cc1c(O)c(CCCn2ccnc2)cc2c1CC(C)(C)O2", "readout label": "pIC50", "measurement": 6.34}
{"compound": "COCOc1c(C)c(CCCOc2cccnc2)c2c(c1C)CCC(C)(C)O2", "readout label": "pIC50", "measurement": 6.32}

----------
Target: human thromboxane A2 synthetase (Homo sapiens, UniProt P24557)
Construct: Washed platelet was prepared from citrate-treated [1/9 (v/v)] human peripheral blood; endogenous in cells
Sequence (P24557 whole entry): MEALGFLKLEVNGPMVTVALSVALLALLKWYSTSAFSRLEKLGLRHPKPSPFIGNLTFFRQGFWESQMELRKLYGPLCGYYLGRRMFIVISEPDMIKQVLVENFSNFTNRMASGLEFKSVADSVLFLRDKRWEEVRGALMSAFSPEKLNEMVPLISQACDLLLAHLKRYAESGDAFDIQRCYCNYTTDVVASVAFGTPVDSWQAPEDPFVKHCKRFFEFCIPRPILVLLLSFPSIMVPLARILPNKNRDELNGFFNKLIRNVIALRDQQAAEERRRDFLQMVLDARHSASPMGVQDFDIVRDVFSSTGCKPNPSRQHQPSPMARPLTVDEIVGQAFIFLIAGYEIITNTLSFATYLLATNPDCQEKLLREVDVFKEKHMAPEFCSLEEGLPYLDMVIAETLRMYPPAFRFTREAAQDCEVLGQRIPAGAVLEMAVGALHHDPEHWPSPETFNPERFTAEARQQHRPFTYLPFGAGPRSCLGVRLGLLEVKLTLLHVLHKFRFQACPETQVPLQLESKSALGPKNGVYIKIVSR
Test: Effect on human thromboxane A2 synthetase activity (washed platelets)
Details: conversion of 14C-arachidonic acid into TXB2, 37° C., 2 min
Procedure: ii) Effect on human thromboxane A2 synthetase activity Washed platelet was prepared from citrate-treated [1/9 (v/v)] human peripheral blood and suspended in Ca^++ -free Krebs-Henseleit solution (pH 7.4) at a concentration of 10.8×10^7 cells/mi. […] The arachidonic acid metabolites and residual substrate were quantified by chromatoscanner. TXA2 synthetase activity was expressed as the conversion rate of total radioactivity into thromboxane B2 (TXB2), a stable metabolite of TXA2. […]
readout label: IC50 (nM)

{"molecule": "CC1(C)CCc2c(Cn3ccnc3)c(O)c3ccccc3c2O1 [4(e)]", "unit of measurement": "nM", "measurement": 8600}
{"molecule": "Cc1c(O)c(CCCn2ccnc2)cc2c1CC(C)(C)O2 [Example 13]", "unit of measurement": "nM", "measurement": 1000}
{"molecule": "Cc1c(O)c(C)c2c(c1CCCOc1cccnc1)OC(C)(C)CC2 [Example 11]", "unit of measurement": "nM", "measurement": 550}
{"molecule": "COCOc1c(C)c(CCCOc2cccnc2)c2c(c1C)CCC(C)(C)O2 [Example 10]", "unit of measurement": "nM", "measurement": 1400}
